molecular target: Full length DGKζ (in-house protein M1-V929) (Homo sapiens, UniProt Q13574); construct: His (N); TEV site (N); assay: Biochemical DGK IC50 assay (ADP-Glo, lipid micelle substrate), DGKζ; conditions: 1 hour preincubation, 1 hour reaction, room temperature
Sequence (Q13574 1-929 isoform Q13574-4): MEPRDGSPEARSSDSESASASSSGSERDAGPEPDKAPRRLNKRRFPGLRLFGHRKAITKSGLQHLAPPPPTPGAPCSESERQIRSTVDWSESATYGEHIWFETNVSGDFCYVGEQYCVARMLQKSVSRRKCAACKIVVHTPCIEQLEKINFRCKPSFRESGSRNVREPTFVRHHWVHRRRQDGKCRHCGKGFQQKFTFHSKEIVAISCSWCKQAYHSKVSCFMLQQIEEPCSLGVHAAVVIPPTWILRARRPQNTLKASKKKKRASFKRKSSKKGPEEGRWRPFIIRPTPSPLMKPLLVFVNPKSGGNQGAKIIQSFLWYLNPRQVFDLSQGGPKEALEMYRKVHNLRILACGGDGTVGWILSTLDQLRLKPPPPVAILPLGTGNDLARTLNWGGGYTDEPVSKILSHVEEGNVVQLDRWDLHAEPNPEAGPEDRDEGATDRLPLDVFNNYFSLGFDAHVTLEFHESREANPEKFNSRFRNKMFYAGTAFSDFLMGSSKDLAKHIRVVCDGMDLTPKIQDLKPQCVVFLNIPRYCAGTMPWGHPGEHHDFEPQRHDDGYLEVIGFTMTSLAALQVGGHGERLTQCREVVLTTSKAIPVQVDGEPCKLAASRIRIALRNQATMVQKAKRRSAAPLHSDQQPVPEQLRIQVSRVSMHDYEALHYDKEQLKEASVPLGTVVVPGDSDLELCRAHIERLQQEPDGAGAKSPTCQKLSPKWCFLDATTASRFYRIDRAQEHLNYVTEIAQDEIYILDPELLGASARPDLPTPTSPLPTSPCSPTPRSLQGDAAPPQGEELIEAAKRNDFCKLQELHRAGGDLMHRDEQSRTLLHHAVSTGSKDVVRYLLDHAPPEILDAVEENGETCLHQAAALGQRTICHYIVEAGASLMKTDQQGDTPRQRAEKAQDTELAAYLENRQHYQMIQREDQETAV
pIC50: −log10 of the molar value.
propertyLabel: pIC50

# compound, pIC50
measured = [
    ("CC(c1ccc(F)cc1C(F)(F)F)N1C[C@H](C)N(c2cc(=O)n(C)c3sc(CC#N)nc23)C[C@H]1C (stereo partly drawn)", 7.60),
    ("CCn1c(CC#N)nc2c(N3C[C@@H](C)N(C(C)c4ccc5sc(C)nc5c4)C[C@@H]3C)nc(=O)n(C)c21 (stereo partly drawn)", 7.51),
    ("CCn1c(CC#N)nc2c(N3C[C@@H](C)N(C(C)c4nc5c(cc4F)OCC(C)(C)O5)C[C@@H]3C)nc(=O)n(C)c21 (single isomer, unassigned) [Compound A161a]", 7.62),
]
